The measurements presented in this section are drawn from PubChem BioAssay AID1963863.

Test system: 931267-113-T-J1-PDC KRAS spheroid with HUVEC/MSC, viability
experiment-description: Anticancer human tumor 931267-113-T-J1-PDC patient-derived colon adenocarcinoma cell line growth inhibition [KRAS2]; active means viability on the fitted dose curve at most 10% of control; inactive means the rest
applied-conditions: second compound 10 µM; first compound 0.0316 µM
The reply should be one of these categories: true (1) for active, false (0) for inactive

Known results for molecules:
| molecule | label-class |
| --- | --- |
| CC(=O)Nc1cccc(-n2c(=O)n(C3CC3)c(=O)c3c(Nc4ccc(I)cc4F)n(C)c(=O)c(C)c32)c1 + CNCc1ccccc1-c1csc(C(C)Nc2nc(C)nc3cc(OC)c(OC)cc23)c1 | true (1) |
| CN(C)C/C=C/C(=O)Nc1cc2c(Nc3ccc(F)c(Cl)c3)ncnc2cc1O[C@H]1CCOC1 + C=CC(=O)N1CCN(c2nc(=O)n(-c3c(C)ccnc3C(C)C)c3nc(-c4c(O)cccc4F)c(F)cc23)C(C)C1 | false (0) |
| CC1OCC2(CCN(c3cnc(Sc4ccnc(N)c4Cl)c(N)n3)CC2)C1N (stereo unspecified) + C=CC(=O)N1CCN(c2nc(=O)n(-c3c(C)ccnc3C(C)C)c3nc(-c4c(O)cccc4F)c(F)cc23)C(C)C1 | false (0) |
| CC(C)n1nc(-c2ccc3oc(N)nc3c2)c2c(N)ncnc21 + C=CC(=O)N1CCN(c2nc(=O)n(-c3c(C)ccnc3C(C)C)c3nc(-c4c(O)cccc4F)c(F)cc23)C(C)C1 | false (0) |
| CC(C)n1nc(-c2ccc3oc(N)nc3c2)c2c(N)ncnc21 + COc1cc2nc(C)nc(NC(C)c3cc(N)cc(C(F)(F)F)c3)c2cc1OC1CCOC1 | true (1) |
| COC(=O)c1ccc2c(C(=Nc3ccc(N(C)C(=O)CN4CCN(C)CC4)cc3)c3ccccc3)c(O)[nH]c2c1 + CC1OCC2(CCN(c3cnc(Sc4ccnc(N)c4Cl)c(N)n3)CC2)C1N | false (0) |
| CCN1CCN(Cc2ccc(Nc3ncc(F)c(-c4cc(F)c5nc(C)n(C(C)C)c5c4)n3)nc2)CC1 + CC1OCC2(CCN(c3cnc(Sc4ccnc(N)c4Cl)c(N)n3)CC2)C1N | false (0) |
| CC1OCC2(CCN(c3cnc(Sc4ccnc(N)c4Cl)c(N)n3)CC2)C1N (stereo unspecified) + CNCc1ccccc1-c1csc(C(C)Nc2nc(C)nc3cc(OC)c(OC)cc23)c1 | true (1) |
| Cn1ncnc1[C@H]1c2n[nH]c(=O)c3cc(F)cc(c23)N[C@@H]1c1ccc(F)cc1 + CC1OCC2(CCN(c3cnc(Sc4ccnc(N)c4Cl)c(N)n3)CC2)C1N | false (0) |
| COC(=O)c1ccc2c(C(=Nc3ccc(N(C)C(=O)CN4CCN(C)CC4)cc3)c3ccccc3)c(O)[nH]c2c1 + C=CC(=O)N1CCN(c2nc(=O)n(-c3c(C)ccnc3C(C)C)c3nc(-c4c(O)cccc4F)c(F)cc23)C(C)C1 | false (0) |

Attention now turns to another entry.
Give the logged outcome of this assay for the following molecule: Cn1ncnc1[C@H]1c2n[nH]c(=O)c3cc(F)cc(c23)N[C@@H]1c1ccc(F)cc1 + COc1cc2nc(C)nc(NC(C)c3cc(N)cc(C(F)(F)F)c3)c2cc1OC1CCOC1
true (1)

* * *

System: 931267-113-T-J1-PDC KRAS spheroid with HUVEC/MSC, viability
experiment-description: Anticancer human tumor 931267-113-T-J1-PDC cell line growth inhibition [KRAS2];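 further: compound exposure lasted 7 days before the readout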;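 on viability, T/C: 100% = DMSO vehicle control viability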
applied-conditions: second compound 0.316 µM; first compound 0.01 µM; stronger effect = lower value
Binary call on viability, T/C with cut-off 80%: strictly below means t, and equality or higher means f.

Record excerpt, results attached:
| compound | label-class |
| --- | --- |
| Cn1ncnc1[C@H]1c2n[nH]c(=O)c3cc(F)cc(c23)N[C@@H]1c1ccc(F)cc1 + C=CC(=O)N1CCN(c2nc(OCC3CCCN3C)nc3c2CCN(c2cccc4cccc(C)c24)C3)CC1CC#N | f |
| CCN1CCN(Cc2ccc(Nc3ncc(F)c(-c4cc(F)c5nc(C)n(C(C)C)c5c4)n3)nc2)CC1 + CNCc1ccccc1-c1csc(C(C)Nc2nc(C)nc3cc(OC)c(OC)cc23)c1 | t |
| CCN1CCN(Cc2ccc(Nc3ncc(F)c(-c4cc(F)c5nc(C)n(C(C)C)c5c4)n3)nc2)CC1 + COc1cc2nc(C)nc(NC(C)c3cc(N)cc(C(F)(F)F)c3)c2cc1OC1CCOC1 | f |
| CCN1CCN(Cc2ccc(Nc3ncc(F)c(-c4cc(F)c5nc(C)n(C(C)C)c5c4)n3)nc2)CC1 + C=CC(=O)N1CCN(c2nc(OCC3CCCN3C)nc3c2CCN(c2cccc4cccc(C)c24)C3)CC1CC#N | f |
| CCN1CCN(Cc2ccc(Nc3ncc(F)c(-c4cc(F)c5nc(C)n(C(C)C)c5c4)n3)nc2)CC1 + CC1OCC2(CCN(c3cnc(Sc4ccnc(N)c4Cl)c(N)n3)CC2)C1N | f |

Consider CC(=O)OC12COC1CC(O)C1(C)C(=O)C(O)C3=C(C)C(OC(=O)C(O)C(NC(=O)OC(C)(C)C)c4ccccc4)CC(O)(C(OC(=O)c4ccccc4)C21)C3(C)C (stereo not given) + CNCc1ccccc1-c1csc(C(C)Nc2nc(C)nc3cc(OC)c(OC)cc23)c1 . Does its viability, T/C lie strictly below 80%?
f

* * *

Tested on: 931267-113-T-J1-PDC KRAS spheroid with HUVEC/MSC, viability
experiment-description: Anticancer human tumor 931267-113-T-J1-PDC cell line growth inhibition [KRAS2];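 further: compound exposure lasted 7 days before the readout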
applied-conditions: curve of first compound; second compound 1 µM
Below is a list of entries, each paired with its recorded pIC50 value.
Note on units: pIC50 is unitless, being -log10 of a concentration expressed in mol/L.

// below: answered molecules
| molecule | pIC50 |
| --- | --- |
| CC(C)NCC(C(=O)N1CCN(c2ncnc3c2C(C)CC3O)CC1)c1ccc(Cl)cc1 (stereo not given) + C=CC(=O)N1CCN(c2nc(=O)n(-c3c(C)ccnc3C(C)C)c3nc(-c4c(O)cccc4F)c(F)cc23)C(C)C1 | 5.33 |
| CN(C)C/C=C/C(=O)Nc1cc2c(Nc3ccc(F)c(Cl)c3)ncnc2cc1O[C@H]1CCOC1 + CNCc1ccccc1-c1csc(C(C)Nc2nc(C)nc3cc(OC)c(OC)cc23)c1 | 9.31 |

Give its pIC50 value. Item: CC(=O)Nc1cccc(-n2c(=O)n(C3CC3)c(=O)c3c(Nc4ccc(I)cc4F)n(C)c(=O)c(C)c32)c1 + CC1OCC2(CCN(c3cnc(Sc4ccnc(N)c4Cl)c(N)n3)CC2)C1N
8.47

Try CCN1CCN(Cc2ccc(Nc3ncc(F)c(-c4cc(F)c5nc(C)n(C(C)C)c5c4)n3)nc2)CC1 + CNCc1ccccc1-c1csc(C(C)Nc2nc(C)nc3cc(OC)c(OC)cc23)c1 next.
8.17

* * *

Tested on: 931267-113-T-J1-PDC KRAS spheroid with HUVEC/MSC, viability
experiment-description: Anticancer human tumor 931267-113-T-J1-PDC cell line growth inhibition [KRAS2];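 further: compound exposure lasted 7 days before the readout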;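 on viability, T/C: 100% = DMSO vehicle control viability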
applied-conditions: second compound 10 µM; first compound 0.0316 µM; stronger effect = lower value
// reported viability, T/C for each item listed
Please respond with the number in % and leave the unit unwritten.

Reference set (2 entries):
| compound | viability, T/C [%] |
| --- | --- |
| COc1cc(Nc2ncc3c(n2)-c2ccc(Cl)cc2C(c2c(F)cccc2OC)=NC3)ccc1C(=O)O + COc1cc2nc(C)nc(NC(C)c3cc(N)cc(C(F)(F)F)c3)c2cc1OC1CCOC1 | 75.5 |
| Cn1ncnc1[C@H]1c2n[nH]c(=O)c3cc(F)cc(c23)N[C@@H]1c1ccc(F)cc1 + CNCc1ccccc1-c1csc(C(C)Nc2nc(C)nc3cc(OC)c(OC)cc23)c1 | 0.16 |

Value lookup for viability, T/C; key = CCNC(=O)CC1N=C(c2ccc(Cl)cc2)c2cc(OC)ccc2-n2c(C)nnc21 (stereo unspecified) + COc1cc2nc(C)nc(NC(C)c3cc(N)cc(C(F)(F)F)c3)c2cc1OC1CCOC1
2.75

// next record CC(C)NCC(C(=O)N1CCN(c2ncnc3c2C(C)CC3O)CC1)c1ccc(Cl)cc1 (stereo unspecified) + C=CC(=O)N1CCN(c2nc(=O)n(-c3c(C)ccnc3C(C)C)c3nc(-c4c(O)cccc4F)c(F)cc23)C(C)C1
81.4

* * *

Test system: 931267-113-T-J1-PDC KRAS spheroid with HUVEC/MSC, viability
experiment-description: Anticancer human tumor 931267-113-T-J1-PDC cell line growth inhibition [KRAS2];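 further: compound exposure lasted 7 days before the readout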;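 on viability, T/C: 100% = DMSO vehicle control viability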
applied-conditions: second compound 0.1 µM; first compound 10 µM; stronger effect = lower value
metric-name: viability, T/C (%)
Value expressed in %; do not type the unit.

| molecule | u | viability, T/C |
| --- | --- | --- |
| CC1OCC2(CCN(c3cnc(Sc4ccnc(N)c4Cl)c(N)n3)CC2)C1N (configuration not stated) + C=CC(=O)N1CCN(c2nc(=O)n(-c3c(C)ccnc3C(C)C)c3nc(-c4c(O)cccc4F)c(F)cc23)C(C)C1 | % | 77.4 |

Read the next record carefully.
Form: Entry = CC1(C)CCC(CN2CCN(c3ccc(C(=O)NS(=O)(=O)c4ccc(NCC5CCOCC5)c([N+](=O)[O-])c4)c(Oc4cnc5[nH]ccc5c4)c3)CC2)=C(c2ccc(Cl)cc2)C1 + COc1cc2nc(C)nc(NC(C)c3cc(N)cc(C(F)(F)F)c3)c2cc1OC1CCOC1 | System = 931267-113-T-J1-PDC KRAS spheroid with HUVEC/MSC, viability | viability, T/C = ____
8.52
